System: Escherichia coli ATCC 23559
Collected MIC values appear next to each entry.
property-name: MIC

molecule | val
C[C@H](N)C(=O)NC1CN(c2nc3c(cc2F)c(=O)c(C(=O)O)cn3-c2ccc(F)cc2F)C1 | 1 µg/mL
CC(C)C[C@H](N)C(=O)NC1CN(c2nc3c(cc2F)c(=O)c(C(=O)O)cn3-c2ccc(F)cc2F)C1 | 0.25 µg/mL
CCn1cc(C(=O)O)c(=O)c2cnc(N3CCNCC3)nc21 [Acide pipémidique, reference compound] | 2 µg/mL
C[C@@H]1[C@@H](NC(=O)[C@@H](C)N)CN1c1nc2c(cc1F)c(=O)c(C(=O)O)cn2C1CC1 | 1 µg/mL
C[C@H](N)C(=O)N[C@@H]1CN(c2cc3c(cc2F)c(=O)c(C(=O)O)cn3-c2ccc(F)cc2F)[C@H]1C | 1 µg/mL
CCC[C@H](N)C(=O)NC1CN(c2nc3c(cc2F)c(=O)c(C(=O)O)cn3-c2ccc(F)cc2F)C1 | 0.25 µg/mL
NCC(=O)NC1CN(c2nc3c(cc2F)c(=O)c(C(=O)O)cn3-c2ccc(F)cc2F)C1 | 0.5 µg/mL

Each recorded value in this set is attributed to patent EP0514268A1.
